Sourced from patent US11524963B2

# Assay Target: RET kinase G810S (Homo sapiens, UniProt P07949, G810S)
# Sequence (P07949 29-1114 G810S): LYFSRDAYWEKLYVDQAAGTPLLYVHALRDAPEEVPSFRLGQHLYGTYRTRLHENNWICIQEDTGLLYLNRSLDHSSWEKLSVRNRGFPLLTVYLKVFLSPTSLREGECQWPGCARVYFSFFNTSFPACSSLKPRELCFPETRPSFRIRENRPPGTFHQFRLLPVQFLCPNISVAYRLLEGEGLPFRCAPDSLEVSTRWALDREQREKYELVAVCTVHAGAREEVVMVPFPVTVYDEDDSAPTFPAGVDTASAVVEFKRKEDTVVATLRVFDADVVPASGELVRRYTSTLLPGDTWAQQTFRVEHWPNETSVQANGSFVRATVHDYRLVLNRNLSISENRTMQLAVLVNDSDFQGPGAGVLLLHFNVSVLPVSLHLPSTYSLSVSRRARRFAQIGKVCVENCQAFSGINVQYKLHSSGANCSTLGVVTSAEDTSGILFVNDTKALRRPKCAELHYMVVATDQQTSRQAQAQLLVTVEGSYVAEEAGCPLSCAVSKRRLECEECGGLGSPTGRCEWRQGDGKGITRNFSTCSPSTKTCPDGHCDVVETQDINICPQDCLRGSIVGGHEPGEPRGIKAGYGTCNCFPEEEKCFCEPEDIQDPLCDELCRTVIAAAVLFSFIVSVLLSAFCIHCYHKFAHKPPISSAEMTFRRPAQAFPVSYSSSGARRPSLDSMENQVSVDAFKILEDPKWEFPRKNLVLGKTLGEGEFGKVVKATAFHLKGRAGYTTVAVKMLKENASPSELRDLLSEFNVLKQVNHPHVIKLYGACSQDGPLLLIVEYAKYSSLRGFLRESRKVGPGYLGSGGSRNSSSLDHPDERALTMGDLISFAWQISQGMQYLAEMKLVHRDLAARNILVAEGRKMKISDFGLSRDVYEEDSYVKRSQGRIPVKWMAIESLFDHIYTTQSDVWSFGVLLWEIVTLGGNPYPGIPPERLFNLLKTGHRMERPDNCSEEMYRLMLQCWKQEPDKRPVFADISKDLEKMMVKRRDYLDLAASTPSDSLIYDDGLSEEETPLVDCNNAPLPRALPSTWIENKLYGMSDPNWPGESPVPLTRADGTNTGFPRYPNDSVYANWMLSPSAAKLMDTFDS
# Experimental Details: RET Enzyme Assay (HTRF KinEASE-TK), G810S
Metric: IC50 (nM)
One number for each entry, in nM.

Example molecules with recorded IC50:
| Molecule | Assay Target | IC50, nM |
| --- | --- | --- |
| CC(C)n1nc(-c2noc(C3CC3)c2-c2cnn(C)c2)c2c(N)ncnc21 [Example 3] | RET kinase G810S (Homo sapiens, UniProt P07949, G810S) | 46.6 |
| CC(C)n1nc(-c2noc(C3CC3)c2-c2ccn(C)n2)c2c(N)ncnc21 [Example 2] | RET kinase G810S (Homo sapiens, UniProt P07949, G810S) | 4.4 |
| CC(C)n1nc(-c2noc(C3CC3)c2C2CCOCC2)c2c(N)ncnc21 [Example 17] | RET kinase G810S (Homo sapiens, UniProt P07949, G810S) | 3.7 |
| CC(C)n1nc(-c2noc(C3CC3)c2C2CCCCO2)c2c(N)ncnc21 (centres unmarked) [Example 16] | RET kinase G810S (Homo sapiens, UniProt P07949, G810S) | 4 |
| CC(C)n1nc(-c2cc(C3CC3)nn2C2CCCCC2)c2c(N)ncnc21 [Example 26] | RET kinase G810S (Homo sapiens, UniProt P07949, G810S) | 87.4 |

Provide IC50 for all items below, preserving their order.
1. CC(C)n1nc(-c2noc(C3CC3)c2C2=CCC(C)(O)CC2)c2c(N)ncnc21 (centres unmarked) [Example 15]
2. CC(C)n1nc(-c2noc(C3CC3)c2C2=COCCC2)c2c(N)ncnc21 [Example 10]

(A)
[6.3, 13.6]
